Measured GI50 accompanies every entry in the list below.
system: SK-MEL-2; assay: NCI tumour cell line growth inhibition, 48 h
Activity calls are given as the source filed them. No stated cut-off is given here; in the data, active = GI50 up to about 1.1 µM and inactive = higher.

COC(=O)c1ccccc1C1CN=NC12Cc1cc3c(cc1C2=O)CCC3 (stereo unspecified) = > 100 µM (inactive)
O=C(Nc1ccc2oc(=O)c(C(=O)O)cc2c1)Oc1ccccc1 = > 100 µM (inactive)
NNC(=S)N/N=C(\CC1OC(=O)c2ccccc21)c1ccccc1O (stereo unspecified) = 26.8 µM (inactive)

For CC12CCC(=O)[C@@]1(C)CCCC2=O (stereo partly specified) , what is its reported GI50?
> 100 µM (inactive)

Report GI50 for CCc1cccc(C)c1NC(=S)NC(=O)c1ccccc1C(=O)NC(=S)Nc1c(C)cccc1CC please.
> 100 µM (inactive)

Using the record for CC(=O)N(CCc1ccccc1)C(C)(C#N)c1ccccc1 (stereo unspecified) , report its GI50.
> 100 µM (inactive)

I would be grateful if you could share the reported GI50 for CN(C)c1ccc(C2C(Cl)C(=O)N2NC(=O)c2c(Cl)c(Cl)c(Cl)c(Cl)c2-c2nc3ccccc3[nH]2)cc1 (stereo unspecified) .
21.8 µM (inactive)

Which value of GI50 has been reported for COC(=O)CC1CC2(C(=O)OC)c3[nH]c4ccccc4c3CCN2C1=O (stereo unspecified) in the records?
> 100 µM (inactive)

Give the measured GI50 of Cn1c2ccc(F)cc2c2ccc3c(c21)C(=O)C=CC3=O .
23.1 µM (inactive)

Given the compound O=C(O)C1OC1(c1cccc(Cl)c1)c1ccccc1Cl (stereo unspecified) , what is its reported GI50?
15.7 µM (inactive)

Name the recorded GI50 for CCCCCCCC(=O)O[C@H]1[C@H]2[C@@H](CC1(C)C)C(=O)[C@]13O[C@H]1C(=O)[C@]1(CO1)[C@]23C .
3.7 µM (inactive)

Need GI50, item CC1=C2C(=O)OCC23C=COC3(C)O1 (stereo unspecified)
32.6 µM (inactive)

Look up GI50 for this compound: CC(C)(C)C(=O)Oc1ccc(/C=C/C(=O)c2ccc(OC(=O)C(C)(C)C)cc2)cc1
> 100 µM (inactive)

Query: GI50; subject: N=C1N(c2ccccc2)C(=O)C23CCCC2C13N1CCOCC1 (stereo unspecified)
> 100 µM (inactive)

Returns the measured GI50 for the input compound. Input: Clc1c(Cl)c(Cl)c2c(nnn2C2CCCO2)c1Cl (stereo unspecified)
26.5 µM (inactive)

Quick one: GI50 of Cc1ccc2nc(-c3ccccc3)c(N=O)n2c1 ?
> 100 µM (inactive)

Which GI50 value belongs to COc1cc(S(=O)(=O)Nc2ccc(-c3csc(N4C(=O)CSC4c4cccs4)n3)cc2)ccc1Cl (stereo unspecified) ?
20.5 µM (inactive)

Which GI50 reading was recorded for the compound CCCn1c(SCC)c2ccccc2c1-c1nc(F)nc(F)n1 ?
> 100 µM (inactive)

Look up GI50 for this compound: COC(=O)NN1C(=O)C(=P(c2ccccc2)(c2ccccc2)c2ccccc2)C(C(=O)OC)=C1C
> 100 µM (inactive)

I have this compound here, COC1C=CC(C(=O)[N+]2=Cc3[nH]c4ccccc4c3CC2)O1 (stereo unspecified) , and I need its recorded GI50.
> 100 µM (inactive)

Which value of GI50 has been reported for Cn1cccc1/C=C/c1cc(Br)c(/C=C/c2cccn2C)cc1Br in the records?
14.6 µM (inactive)

I am curious: what GI50 value has been reported for CC1(C)CC(=O)C(CC2C(=O)c3ccccc3C2=O)C(=O)C1C(=O)C(=O)Nc1cccc2ccc(O)cc12 (stereo unspecified) ?
> 100 µM (inactive)

For the compound c1ccc2c(c1)[nH]c1c3ccccc3sc21 , what GI50 is on record?
> 100 µM (inactive)
